These entries and their values trace back to patent US9365523B2.

Below, each entry is listed with its recorded EC50.
tested on: HPIV3; assay: Virus yield reduction assay, HPIV3; type: cell-based, human parainfluenzavirus type 3; settings: Human respirovirus 3
Test Readout: EC50 (nM)

COc1ccc(-n2c(S[C@@H](C)C(=O)Nc3ccc(C)cc3Cl)nc3ccccc32)cc1 = 80
COc1ccc(-n2c(SC(C)C(=O)Nc3ccc(C)cc3Cl)nc3ccccc32)cc1 (centres unmarked) [drawing 253] = 80
Cc1ccc(NC(=O)[C@H](C)Sc2nc3ccccc3n2-c2ccc(CCN3CCOCC3)cc2)c(Cl)c1 = 80
Cc1ccc(NC(=O)[C@H](C)Sc2nc3ccccc3n2-c2cccc(CCN3CCOCC3)c2)c(Cl)c1 = 16
Cc1ccc(NC(=O)[C@H](C)Sc2nc3ccccc3n2-c2ccccc2CN2CCN(C)CC2)c(Cl)c1 = 16

###

test system: influenza A/WSN (H1N1); assay: microbe, parasite or virus in culture; type: cell-based; conditions: read-out: EC50, reduction of virus yield (WSN)
Threshold 8 nM: EC50 strictly smaller gives 1, otherwise -1.

COc1ccc(-n2c(S[C@@H](C)C(=O)Nc3ccc(C)cc3Cl)nc3ccccc32)cc1 = 1
COc1ccc(-n2c(SC(C)C(=O)Nc3ccc(C)cc3Cl)nc3ccccc32)cc1 (centres unmarked) [drawing 253] = -1
Cc1ccc(NC(=O)[C@H](C)Sc2nc3ccccc3n2-c2ccc(CCN3CCOCC3)cc2)c(Cl)c1 = -1
Cc1ccc(NC(=O)[C@H](C)Sc2nc3ccccc3n2-c2ccccc2CN2CCN(C)CC2)c(Cl)c1 = 1
Cc1ccc(NC(=O)C(C)Sc2nc3ccccc3n2-c2cccc(CCN3CCOCC3)c2)c(Cl)c1 (centres unmarked) = 1
Cc1ccc(NC(=O)[C@@H](C)Sc2nc3ccccc3n2-c2ccccc2CN2CCN(C)CC2)c(Cl)c1 = -1
Cc1ccc(NC(=O)C(C)Sc2nc3ccccc3n2-c2ccc(CCN3CCOCC3)cc2)c(Cl)c1 (centres unmarked) = -1

###

test system: influenza A/WSN (H1N1); assay: microbe, parasite or virus in culture; assay type: cell-based; conditions: read-out: EC50, reduction of virus yield (WSN)
pEC50: −log10 of the molar value.
Test Readout: pEC50

Cc1ccc(NC(=O)[C@@H](C)Sc2nc3ccccc3n2-c2cccc(CCN3CCOCC3)c2)c(Cl)c1 = 6.97
Cc1ccc(NC(=O)[C@@H](C)Sc2nc3ccccc3n2-c2ccc(CCN3CCOCC3)cc2)c(Cl)c1 = 6.93
Cc1ccc(NC(=O)[C@H](C)Sc2nc3ccccc3n2-c2cccc(CCN3CCOCC3)c2)c(Cl)c1 = 8.82
COc1ccc(-n2c(S[C@H](C)C(=O)Nc3ccc(C)cc3Cl)nc3ccccc32)cc1 = 6.80

###

Attribute: pEC50
system: MeV-Alaska; assay: Viral CPE-reduction assay; conditions: Measles morbillivirus, read-out: EC50, suppression of viral cytopathic effect (CPE), CPE
pEC50: −log10 of the molar value.
Test Readout: pEC50

CCN1CCCC1Cn1c(SC(C)C(=O)Nc2ccc(C)cc2Cl)nc2ccccc21 (stereo not drawn) [drawing 214] = 5.45
Cc1ccc(NC(=O)C(C)Sc2nc3ccccc3n2C2CCN(C(=O)OC(C)(C)C)CC2)c(Cl)c1 (stereo not drawn) [drawing 220] = 6.22
Cc1ccc(NC(=O)C(C)Sc2nc3ccccc3n2-c2cccc(CCN(C)C)c2)c(Cl)c1 (stereo not drawn) = 5.91
CC(Sc1nc2ccccc2n1-c1ccc(CC=O)cc1)C(=O)Nc1ccccc1Cl (stereo not drawn) = 4.73
Cc1ccc(NC(=O)C(C)Sc2nc3ccccc3n2[C@H]2CCCC[C@@H]2O)c(Cl)c1 (stereo partly drawn) = 6.06
CCN1CCN(CCn2c(SC(C)C(=O)Nc3ccc(C)cc3Cl)nc3ccccc32)CC1 (stereo not drawn) = 4.73
Cc1ccc(NC(=O)C(C)Sc2nc3ccccc3n2-c2ccc(CCNC3CCN(C(=O)OC(C)(C)C)CC3)cc2)c(Cl)c1 (stereo not drawn) = 5.33
Cc1ccc(NC(=O)C(C)Sc2nc3ccccc3n2[C@H]2CC[C@H](O)CC2)c(Cl)c1 (stereo partly drawn) = 5.56
Cc1ccc(NC(=O)C(C)Sc2nc3ccccc3n2-c2ccc(CCNCCN3CCOCC3)cc2)c(Cl)c1 (stereo not drawn) = 5.72
Cc1ccc(NC(=O)C(C)Sc2nc3ccccc3n2-c2ccc(N3CCOCC3)cc2)c(Cl)c1 (stereo not drawn) [drawing 232] = 6.52
COc1ccc(-n2c(SC(C)C(=O)Nc3ccc(C)cc3Cl)nc3cccnc32)cc1 (stereo not drawn) [drawing 227] = 5.78
CNCCc1ccc(-n2c(SC(C)C(=O)Nc3ccc(C)cc3Cl)nc3ccccc32)cc1 (stereo not drawn) [drawing 226] = 5.06
Cc1ccc(NC(=O)C(C)Sc2nc3ccccc3n2CCN2CCN(C(C)c3ccc(F)cc3)CC2)c(Cl)c1 (stereo not drawn) = 5.66
Cc1ccc(NC(=O)C(C)Sc2nc3ccccc3n2C2CCCN(CCO)C2)c(Cl)c1 (stereo not drawn) = 5.00
Cc1ccc(NC(=O)C(C)Sc2nc3ccccc3n2CCN2CCOCC2)c(Cl)c1 (stereo not drawn) = 5.31
CC(Sc1nc2ccccc2n1-c1ccc(CCO)cc1)C(=O)Nc1ccccc1Cl (stereo not drawn) = 5.33
Cc1ccc(NC(=O)C(C)Sc2nc3ccccc3n2-c2cccc(CO)c2)c(Cl)c1 (stereo not drawn) [drawing 230] = 6.15
Cc1ccc(NC(=O)C(C)Sc2nc3ccccc3n2CCN2CCN(C(=O)OC(C)(C)C)CC2)c(Cl)c1 (stereo not drawn) = 5.88
Cc1ccc(NC(=O)C(C)Sc2nc3ccccc3n2-c2cccc(CCN3CCCC3)c2)c(Cl)c1 (stereo not drawn) = 5.78
Cc1ccc(NC(=O)C(C)Sc2nc3ccccc3n2-c2ccc(CC=O)cc2)c(Cl)c1 (stereo not drawn) [drawing 225] = 5.07
COCCN1CCCC(n2c(SC(C)C(=O)Nc3ccc(C)cc3Cl)nc3ccccc32)C1 (stereo not drawn) = 6.00
Cc1ccc(NC(=O)C(C)Sc2nc3ccccc3n2CC2CCN(C(=O)OC(C)(C)C)CC2)c(Cl)c1 (stereo not drawn) = 5.88
Cc1ccc(NC(=O)C(C)Sc2nc3ccccc3n2-c2cccc(CN3CCN(C)CC3)c2)c(Cl)c1 (stereo not drawn) [drawing 252] = 5.89
Cc1ccc(NC(=O)C(C)Sc2nc3ccccc3n2-c2ccc(CCO)cc2)c(Cl)c1 (stereo not drawn) [drawing 224] = 5.60
COc1ccc(-n2c(SC(CCO)C(=O)Nc3ccccc3)nc3ccccc32)cc1 (stereo not drawn) = 4.56
Cc1ccc(NC(=O)C(C)Sc2nc3ccccc3n2-c2ccccc2CO)c(Cl)c1 (stereo not drawn) = 6.10
Cc1ccc(NC(=O)C(C)Sc2nc3ccccc3n2CC2CCN(C(C)c3ccc(F)cc3)CC2)c(Cl)c1 (stereo not drawn) = 5.93
Cc1ccc(NC(=O)C(C)Sc2nc3ccccc3n2-c2ccc(CO)cc2)c(Cl)c1 (stereo not drawn) [drawing 229] = 5.41
